- SYSTEM UNDER TEST: PPAR delta (Homo sapiens, UniProt Q03181)
- ASSAY SUMMARY: Transfection assay for PPAR receptors (PPAR-Gal4 / Gal4-Luciferase reporter in HEK293 cells)
- Format: cell-based
- TEST PARAMETERS: HEK293 cells co-transfected with PPAR-Gal4 (δ) receptor and Gal4-Luciferase reporter, 24 hours; multiple EC50's = multiple measurements; Table 2
pEC50: −log10 of the molar value.
ATTRIBUTE MEASURED: pEC50

Answered cases to consult:
Cc1cc(SCC(O)COc2ccc(C(F)(F)F)cc2)ccc1OCC(=O)O (centres unmarked)    7.10
CCCOC(COc1ccc(C(F)(F)F)cc1)CSc1ccc(OCC(=O)O)c(C)c1 (centres unmarked)    8.37

(a) Cc1cc(SCC(COc2ccc(C(F)(F)F)cc2)OCC(=O)O)ccc1OCC(=O)O (centres unmarked)
(b) Cc1cc(SCC(CCC#N)COc2ccc(C(F)(F)F)cc2)ccc1OCC(=O)O (centres unmarked)
(c) Cc1ccc(OCCCSc2ccc(OCC(=O)O)c(C)c2)cc1
Input line: Order the records, beginning with the lowest pEC50 and ending with the highest. Sort and list the labels as requested.
Output line: c, a, b
(c: 6.67, a: 6.90, b: 8.24)

====

- SYSTEM UNDER TEST: PPAR delta (Homo sapiens, UniProt Q03181)
- Sequence (Q03181 171-441 limits assumed): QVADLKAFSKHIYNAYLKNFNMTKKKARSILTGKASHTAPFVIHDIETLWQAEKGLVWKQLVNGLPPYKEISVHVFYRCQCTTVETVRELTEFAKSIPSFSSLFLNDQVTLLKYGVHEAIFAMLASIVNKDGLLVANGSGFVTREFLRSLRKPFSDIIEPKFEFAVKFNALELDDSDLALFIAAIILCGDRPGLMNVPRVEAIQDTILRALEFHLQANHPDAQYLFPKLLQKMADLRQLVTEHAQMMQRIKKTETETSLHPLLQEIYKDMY
- ASSAY SUMMARY: Transfection assay for PPAR receptors (PPAR-Gal4 / Gal4-Luciferase reporter in HEK293 cells)
- Format: cell-based
- TEST PARAMETERS: Table 3 compounds of interest, tested likewise
ATTRIBUTE MEASURED: EC50 (nM)
Kindly provide the numeric value in nM only, without the unit symbol.

Input line: GET /values?readout=EC50&system=PPAR delta (Homo sapiens, UniProt Q03181)&item= Cc1cc(SCCCOc2ccc(C(F)(F)F)cc2)ccc1OCC(=O)O
Output line: 17.6
